Assay: absorption spectra measured in solution (λmax, ε, shift Δλmax after thermal cyclization)
Format: physicochemical
Parameters: unit: nm; negative = hypsochromic shift
Conditions: table; shift after thermal cyclization

chemical-smiles: N#Cc1c(/C=C\Nc2ccccc2)c2ccc(-n3nccn3)cc2oc1=O
Δλmax: >|100|*

chemical-smiles: CCc1ccc(N/C=C(/Br)c2c(C#N)c(=O)[nH]c3ccc(CC)cc23)cc1
Δλmax: >|100|*

chemical-smiles: Cc1ccc(N/C=C\c2c(C#N)c(=O)oc3ccccc23)cc1C
Δλmax: >|100|*

Measured values drawn from patent US20020197561A1 for this set.
